Source of measurements: ChEMBL document CHEMBL1131496

Consider compounds characterized by their IC50 with Glutamate receptor ionotropic, AMPA (Mus musculus, UniProt P23818+P23819+Q9Z2W8+Q9Z2W9).
reported.property: IC50 (µM)

>>> recorded_number("NC(Cc1onc(O)c1Br)C(=O)O (stereo unspecified)")
0.6
>>> recorded_number("CCCCc1c(O)noc1CC(N)C(=O)O (stereo unspecified)")
1.8
>>> recorded_number("CCCCc1c(O)noc1C[C@H](N)C(=O)O")
0.48
>>> recorded_number("N[C@@H](Cc1onc(O)c1Br)C(=O)O")
0.34
>>> recorded_number("N[C@H](Cc1onc(O)c1Br)C(=O)O")
32

----------
Measured pIC50 by item
test: In vitro binding affinity against Metabotropic glutamate receptor using [3H](S)-glutamic acid; parameters: species or system Mus musculus
pIC50: −log10 of the molar value.
reported.property: pIC50

>>> recorded_number("CCCCc1c(O)noc1C[C@@H](N)C(=O)O")
6.24
>>> recorded_number("N[C@@H](Cn1oc(=O)[nH]c1=O)C(=O)O [QUISQUALATE]")
7.60
>>> recorded_number("NC(Cc1onc(O)c1Br)C(=O)O (stereo not drawn)")
6.70
>>> recorded_number("N[C@@H](Cc1onc(O)c1Br)C(=O)O")
6.66
>>> recorded_number("CCCCc1c(O)noc1C[C@H](N)C(=O)O")
6.19
>>> recorded_number("N[C@H](Cc1onc(O)c1Br)C(=O)O")
6.82
>>> recorded_number("CCCCc1c(O)noc1CC(N)C(=O)O (stereo not drawn)")
6.20
